Below, each of the compounds is paired with its reported inhibition at 10 µM value.
# measuredOn: Cif (Pseudomonas aeruginosa (strain UCBPP-PA14))
# Sequence (A0A0H2ZD27 25-319 limits assumed): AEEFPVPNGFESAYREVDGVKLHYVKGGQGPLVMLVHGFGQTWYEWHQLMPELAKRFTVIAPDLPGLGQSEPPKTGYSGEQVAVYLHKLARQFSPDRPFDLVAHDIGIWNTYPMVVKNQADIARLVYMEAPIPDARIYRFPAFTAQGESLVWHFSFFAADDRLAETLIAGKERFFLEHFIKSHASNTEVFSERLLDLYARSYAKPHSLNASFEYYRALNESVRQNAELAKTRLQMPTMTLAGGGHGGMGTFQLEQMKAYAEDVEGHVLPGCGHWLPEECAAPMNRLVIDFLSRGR
# protocolDetails: Secondary screen (sextuplicate) with fluorogenic substrate CMNGC
# Format: biochemical
# conditionDetails: read-out: % Inhibition, plate 2
Where a name gives a salt, the structure may show the parent alone.

- compound: "CCN(CC)CCOc1ccc2c(c1)C(=O)c1cc(OCCN(CC)CC)ccc1-2 [Tilorone]"
  inhibition at 10 µM (%): 5
- compound: "C=CCc1ccc(O)c(OC)c1 [Eugenol]"
  inhibition at 10 µM (%): 0
- compound: "C[N+](C)(C)CC(=O)O [Betaine hydrochloride]"
  inhibition at 10 µM (%): 10
- compound: "O=C(CCCCCCC(=O)Nc1ccccc1)NO [Vorinostat]"
  inhibition at 10 µM (%): 13
- compound: "CCCCCCCCCCCCCCOS(=O)(=O)O [Sodium tetradecyl sulfate]"
  inhibition at 10 µM (%): 4
- compound: "S=c1nc[nH]c2nc[nH]c12 [Mercaptopurine]"
  inhibition at 10 µM (%): 15
- compound: "CN(C)CCOc1ccc(/C(=C(/CCCl)c2ccccc2)c2ccccc2)cc1 [Toremiphene citrate]"
  inhibition at 10 µM (%): 7
- compound: "N#C[C@@H]1C[C@@H]2C[C@@H]2N1C(=O)[C@@H](N)C12CC3CC(CC(O)(C3)C1)C2 [Saxagliptin]"
  inhibition at 10 µM (%): 0
- compound: "C=C(NC(=O)C(=C)NC(=O)c1csc(C2=N[C@@H]3c4csc(n4)[C@H]4NC(=O)c5csc(n5)[C@H]([C@](C)(O)[C@@H](C)O)NC(=O)[C@H]5CSC(=N5)/C(=C/C)NC(=O)[C@H]([C@@H](C)O)NC(=O)c5csc(n5)[C@]3(CC2)NC(=O)[C@H](C)NC(=O)C(=C)NC(=O)[C@H](C)NC(=O)[C@H]([C@@H](C)CC)N[C@@H]2C=Cc3c([C@H](C)O)cc(nc3[C@H]2O)C(=O)O[C@@H]4C)n1)C(N)=O [Thiostrepton]"
  inhibition at 10 µM (%): 15
- compound: "C[C@]12CC[C@@H]3c4ccc(O)cc4CC[C@H]3[C@@H]1CC[C@@H]2O [Estradiol]"
  inhibition at 10 µM (%): 5
- compound: "CC(=O)[C@@]1(O)CC[C@H]2[C@@H]3C[C@H](C)C4=CC(=O)C=C[C@]4(C)[C@@]3(F)[C@@H](O)C[C@@]21C [Fluorometholone]"
  inhibition at 10 µM (%): 15
- compound: "NCC(O)c1ccc(O)cc1 (stereo not drawn) [Octopamine hydrochloride]"
  inhibition at 10 µM (%): 6
- compound: "Nc1nc(Cl)nc2c1ncn2[C@@H]1O[C@H](CO)[C@@H](O)[C@@H]1F [Clofarabine]"
  inhibition at 10 µM (%): 8
- compound: "CCOC(=O)[C@H](CCc1ccccc1)N[C@@H](C)C(=O)N1CCC[C@H]1C(=O)O [Enalapril maleate]"
  inhibition at 10 µM (%): 13
- compound: "NC(CO)C(=O)NNCc1ccc(O)c(O)c1O (stereo not drawn) [Benserazide hydrochloride]"
  inhibition at 10 µM (%): 85

----------
# measuredOn: Cif (Pseudomonas aeruginosa (strain UCBPP-PA14))
# protocolDetails: Secondary screen (sextuplicate) with fluorogenic substrate CMNGC;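 further: purified enzyme assay in 96-well plates, 200 µL volume, fluorescence recorded each minute across a 60 min reaction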
# Format: biochemical
# conditionDetails: read-out: % Inhibition, Mean ± SD
Counter-ions that a name gives are not always drawn.

- compound: "N#C[C@@H]1C[C@@H]2C[C@@H]2N1C(=O)[C@@H](N)C12CC3CC(CC(O)(C3)C1)C2"
  resultUnit: "%"
  inhibition at 10 µM: 5
- compound: "O=C1CC2(CCCC2)CC(=O)N1CCCCN1CCN(c2ncccn2)CC1 [Buspirone hydrochloride]"
  resultUnit: "%"
  inhibition at 10 µM: -3
- compound: "C[C@]12CC[C@@H]3c4ccc(O)cc4CC[C@H]3[C@@H]1CC[C@@H]2O"
  resultUnit: "%"
  inhibition at 10 µM: 4
- compound: "C[C@]12CCC(=O)C=C1C=C[C@@H]1[C@@H]2CC[C@@]2(C)[C@H]1CC[C@@]21CCC(=O)O1"
  resultUnit: "%"
  inhibition at 10 µM: 24
- compound: "CO[C@@]1(NC(=O)Cc2cccs2)C(=O)N2C(C(=O)O)=C(COC(N)=O)CS[C@@H]21 [Cefoxitin sodium]"
  resultUnit: "%"
  inhibition at 10 µM: 10
- compound: "COC(=O)/C=C/C(=O)OC [Dimethyl fumarate]"
  resultUnit: "%"
  inhibition at 10 µM: 5
- compound: "C[N+](C)(C)CC(=O)O [Betaine hydrochloride]"
  resultUnit: "%"
  inhibition at 10 µM: 13
- compound: "NCC(O)c1ccc(O)cc1 (stereo not drawn) [Octopamine hydrochloride]"
  resultUnit: "%"
  inhibition at 10 µM: 11
- compound: "S=c1nc[nH]c2nc[nH]c12"
  resultUnit: "%"
  inhibition at 10 µM: 13
- compound: "CCOC(=O)[C@H](CCc1ccccc1)N[C@@H](C)C(=O)N1CCC[C@H]1C(=O)O [Enalapril maleate]"
  resultUnit: "%"
  inhibition at 10 µM: 4
- compound: "CC(=O)CC(c1ccccc1)c1c(O)c2ccccc2oc1=O (stereo not drawn)"
  resultUnit: "%"
  inhibition at 10 µM: 15
- compound: "O=C(CCCCCCC(=O)Nc1ccccc1)NO"
  resultUnit: "%"
  inhibition at 10 µM: 13
- compound: "Nc1nc2c(ncn2CCC(CO)CO)c(=O)[nH]1"
  resultUnit: "%"
  inhibition at 10 µM: 0
- compound: "CCN(CC)CCOc1ccc2c(c1)C(=O)c1cc(OCCN(CC)CC)ccc1-2"
  resultUnit: "%"
  inhibition at 10 µM: 6
- compound: "CN(C)CCCN1c2ccccc2CCc2ccc(Cl)cc21 [Clomipramine hydrochloride]"
  resultUnit: "%"
  inhibition at 10 µM: 5
- compound: "NC(CO)C(=O)NNCc1ccc(O)c(O)c1O (stereo not drawn) [Benserazide hydrochloride]"
  resultUnit: "%"
  inhibition at 10 µM: 79
- compound: "Cc1nccnc1N1CCCCC1 [Modaline sulfate]"
  resultUnit: "%"
  inhibition at 10 µM: 12
- compound: "NC[C@H]1O[C@H](O[C@H]2[C@H](O)[C@@H](O[C@H]3O[C@H](CO)[C@@H](O)[C@H](N)[C@H]3O)[C@H](N)C[C@@H]2N)[C@H](N)C[C@@H]1O"
  resultUnit: "%"
  inhibition at 10 µM: -8
- compound: "CN(C)CCOc1ccc(/C(=C(/CCCl)c2ccccc2)c2ccccc2)cc1 [Toremiphene citrate]"
  resultUnit: "%"
  inhibition at 10 µM: 10
- compound: "CC(C)Cc1ccc(C(C)C(=O)O)cc1 (stereo not drawn)"
  resultUnit: "%"
  inhibition at 10 µM: 7
- compound: "Cc1c(Nc2ncccc2C(=O)O)cccc1C(F)(F)F"
  resultUnit: "%"
  inhibition at 10 µM: 14
- compound: "CN(C)CCCN1c2ccccc2Sc2ccc(C(F)(F)F)cc21 [Triflupromazine hydrochloride]"
  resultUnit: "%"
  inhibition at 10 µM: 2
- compound: "C=CC1=C(C)c2cc3[nH]c(cc4nc(cc5[nH]c(cc1n2)c(C)c5CCC(=O)O)C(CCC(=O)O)=C4C)c(C)c3C=C"
  resultUnit: "%"
  inhibition at 10 µM: 20
- compound: "CCCCCCCCCCCCCCCCOP(=O)([O-])OCC[N+](C)(C)C"
  resultUnit: "%"
  inhibition at 10 µM: 8
- compound: "C=C(NC(=O)C(=C)NC(=O)c1csc(C2=N[C@@H]3c4csc(n4)[C@H]4NC(=O)c5csc(n5)[C@H]([C@](C)(O)[C@@H](C)O)NC(=O)[C@H]5CSC(=N5)/C(=C/C)NC(=O)[C@H]([C@@H](C)O)NC(=O)c5csc(n5)[C@]3(CC2)NC(=O)[C@H](C)NC(=O)C(=C)NC(=O)[C@H](C)NC(=O)[C@H]([C@@H](C)CC)N[C@@H]2C=Cc3c([C@H](C)O)cc(nc3[C@H]2O)C(=O)O[C@@H]4C)n1)C(N)=O"
  resultUnit: "%"
  inhibition at 10 µM: 28
- compound: "CC(C(=O)O)c1cccc(C(=O)c2ccccc2)c1 (stereo not drawn)"
  resultUnit: "%"
  inhibition at 10 µM: 9
- compound: "Nc1nc(Cl)nc2c1ncn2[C@@H]1O[C@H](CO)[C@@H](O)[C@@H]1F"
  resultUnit: "%"
  inhibition at 10 µM: 12
- compound: "Nc1ccc(S(=O)(=O)Nc2ncccn2)cc1"
  resultUnit: "%"
  inhibition at 10 µM: 23
- compound: "CC1=NN(c2ccccc2)C(=O)C1"
  resultUnit: "%"
  inhibition at 10 µM: 16
- compound: "CN1CCCC(n2nc(Cc3ccc(Cl)cc3)c3ccccc3c2=O)CC1 (stereo not drawn) [Azelastine hydrochloride]"
  resultUnit: "%"
  inhibition at 10 µM: 34
